These data points were gathered from patent US20240287124A1.

- Tested on: HIV-1 wild-type (R8) virus
- measurement.notes: Viral KINetics in Green cells (VIKING) assay, HIV-1 replication in MT4-GFP reporter cells
- Type: cell-based
- condition.parameters: Human immunodeficiency virus 1, 10% normal human serum, MT4-GFP cells, HIV-1 wild-type (R8); read-out: Viking (10% NHS), IC50
So I've got a bunch of compounds here, and I need their IC50 values.
One number for each entry, in nM.

Below are worked cases with known answers.
- line.notation: "C#C[C@]1(COC(=O)OCc2cccnc2)O[C@@H](n2ccc3c(N)nc(Cl)nc32)C[C@@H]1CC(=O)CCCc1ccccc1"
  IC50, nM: 6.2
- line.notation: "C#C[C@]1(COC(=O)OCCCCCCCCCCCCCC)O[C@@H](n2ccc3c(N)nc(Cl)nc32)C[C@@H]1O"
  IC50, nM: 3.5

Fill in IC50 for each of the 8 compounds listed.
1. C#C[C@]1(COC(=O)Cc2ccc(Cl)cc2)O[C@@H](n2ccc3c(N)nc(Cl)nc32)C[C@@H]1O
2. C#C[C@]1(COC(=O)Cc2ccc(Cl)cc2)O[C@@H](n2ccc3c(N)nc(Cl)nc32)C[C@@H]1OC(=O)OCCC12CC3CC(CC(C3)C1)C2
3. C#C[C@]1(COC(=O)OCc2ccccc2)O[C@@H](n2ccc3c(N)nc(Cl)nc32)C[C@@H]1OC(=O)OCCC12CC3CC(CC(C3)C1)C2
4. C#C[C@]1(CO)O[C@@H](n2ccc3c(N)nc(Cl)nc32)C[C@@H]1OC(=O)CCCOC(C)=O
5. C#C[C@]1(CO)O[C@@H](n2ccc3c(N)nc(Cl)nc32)C[C@@H]1OC(=O)OCC12CC(C1)C2
6. C#C[C@]1(COC(=O)OCC23CC(C2)C3)O[C@@H](n2ccc3c(N)nc(Cl)nc32)C[C@@H]1OC(=O)OCC12CC(C1)C2
7. C#C[C@]1(COC(=O)CCCCC)O[C@@H](n2ccc3c(N)nc(Cl)nc32)C[C@@H]1OC(C)=O
8. C#C[C@]1(CO)O[C@@H](n2ccc3c(N)nc(Cl)nc32)C[C@@H]1OC(=O)c1ccccn1

2.4
74
44
3.8
2.7
7.2
17
4.3

====

- Test system: HIV-1 wild-type (R8) virus
- measurement.notes: Viral KINetics in Green cells (VIKING) assay, HIV-1 replication in MT4-GFP reporter cells
- Format: cell-based
- condition.parameters: Human immunodeficiency virus 1, 10% normal human serum, MT4-GFP cells, HIV-1 wild-type (R8); read-out: Viking (10% NHS), IC50
So I've got a bunch of compounds here, and I need their pIC50 values.
One number for each entry, as −log10 of the molar value.

Below are worked cases with known answers.
- compound: "C#C[C@]1(CO)O[C@@H](n2ccc3c(N)nc(Cl)nc32)C[C@@H]1OC(=O)C(C)C [Example 2]"
  pIC50: 7.39
- compound: "C#C[C@]1(COC(=O)Cc2ccc(Cl)cc2)O[C@@H](n2ccc3c(N)nc(Cl)nc32)C[C@@H]1OC(=O)Cc1ccc(Cl)cc1 [Example 34]"
  pIC50: 8.21
- compound: "C#C[C@]1(CO)O[C@@H](n2ccc3c(N)nc(Cl)nc32)C[C@@H]1OC(=O)OC(CC)CC [Example 84]"
  pIC50: 6.89
- compound: "C#C[C@]1(COC(=O)Cc2ccc(Cl)cc2)O[C@@H](n2ccc3c(NC(=O)CCc4ccccc4)nc(Cl)nc32)C[C@@H]1O [Example 147]"
  pIC50: 7.26
- compound: "C#C[C@]1(COC(=O)CCCCCCCCCCCCC)O[C@@H](n2ccc3c(N)nc(Cl)nc32)C[C@@H]1O [Example 87]"
  pIC50: 8.42
- compound: "C#C[C@]1(CO)O[C@@H](n2ccc3c(N)nc(Cl)nc32)C[C@@H]1OC(=O)CCCCC [Example 59]"
  pIC50: 8.55

Next, consider the following compound.
Which measured pIC50 value corresponds to C#C[C@]1(COC(=O)OCCCCC)O[C@@H](n2ccc3c(N)nc(Cl)nc32)C[C@@H]1O [Example 14] ?
8.60
